Let's look at some molecules and their measured IC50.
Tested on: MT-4 cell protein synthesis
method: Incorporation of radiolabeled leucine into MT-4 cell protein
Type: cell-based
measurement_setup: Homo sapiens, MT4; MT-4 cells, 20 to 24 hr; read-out: IC50, L-[4,5-3H]leucine incorporation

CC(C)=CCn1c(=O)c(C)cn([C@@H]2O[C@H](CO[Si](C)(C)C(C)(C)C)[C@@]3(OS(=O)(=O)C=C3N)[C@H]2O[Si](C)(C)C(C)(C)C)c1=O	> 100 µg/mL
CC(C)(C)[Si](C)(C)OC[C@H]1O[C@@H](n2ccc(N)nc2=O)[C@H](O[Si](C)(C)C(C)(C)C)[C@]12OS(=O)(=O)C=C2N	> 100 µg/mL
C=CCn1c(=O)c(C)cn([C@@H]2O[C@H](CO[Si](C)(C)C(C)(C)C)[C@@]3(OS(=O)(=O)C=C3N)[C@H]2O[Si](C)(C)C(C)(C)C)c1=O	> 100 µg/mL

Supply measured IC50 of Cc1cn([C@@H]2O[C@H](CO[Si](C)(C)C(C)(C)C)[C@@]3(OS(=O)(=O)C=C3N)[C@H]2O[Si](C)(C)C(C)(C)C)c(=O)n(C)c1=O in your reply.
> 100 µg/mL

Find the measured IC50 of Cc1cn([C@@H]2O[C@H](CO[Si](C)(C)C(C)(C)C)[C@@]3(OS(=O)(=O)C=C3N)[C@H]2O[Si](C)(C)C(C)(C)C)c(=O)nc1N and report it.
13 µg/mL

Please report IC50 for the following molecule: CC(C)(C)[Si](C)(C)OC[C@H]1O[C@@H](n2ccc(=O)[nH]c2=O)[C@H](O[Si](C)(C)C(C)(C)C)[C@]12OS(=O)(=O)C=C2N
14 µg/mL

###

method: Cytotoxicity for mock-infected MT-4 cells
measurement_setup: human, mt-4 cells
outcome_measure: CC50 at 120 h (µg/mL)
Number only, in µg/mL; omit the unit.

Check out these entries, answers already filled in.
CCc1cn([C@@H]2O[C@H](CO[Si](C)(C)C(C)(C)C)[C@@]3(OS(=O)(=O)C=C3N)[C@H]2O[Si](C)(C)C(C)(C)C)c(=O)[nH]c1=O	3.2
Cc1cn([C@@H]2O[C@H](COC(=O)c3ccccc3)[C@@]3(OS(=O)(=O)C=C3N)[C@H]2O[Si](C)(C)C(C)(C)C)c(=O)[nH]c1=O	20
CC(C)=CCn1c(=O)c(C)cn([C@@H]2O[C@H](CO[Si](C)(C)C(C)(C)C)[C@@]3(OS(=O)(=O)C=C3N)[C@H]2O[Si](C)(C)C(C)(C)C)c1=O	73

Given CC(C)(C)[Si](C)(C)OC[C@H]1O[C@@H](n2cc(Br)c(=O)[nH]c2=O)[C@H](O[Si](C)(C)C(C)(C)C)[C@]12OS(=O)(=O)C=C2N , respond with its CC50 at 120 h.
2.35

Identify measured CC50 at 120 h associated with Cc1cn([C@@H]2O[C@H](CO[Si](C)(C)C(C)(C)C)[C@@]3(OS(=O)(=O)C=C3N)[C@H]2O[Si](C)(C)C(C)(C)C)c(=O)[nH]c1=O
7.7

###

method: Cytotoxicity for mock-infected MT-4 cells
measurement_setup: human, mt-4 cells
CC50 at 120 h: recorded values
Write the value in µg/mL as a bare number.

Cc1cn([C@@H]2O[C@H](CO)[C@@]3(OS(=O)(=O)C=C3N)[C@H]2O[Si](C)(C)C(C)(C)C)c(=O)[nH]c1=O	106

For the next question, use this molecule.
Name the recorded CC50 at 120 h of the molecule listed here: CCn1c(=O)c(C)cn([C@@H]2O[C@H](CO[Si](C)(C)C(C)(C)C)[C@@]3(OS(=O)(=O)C=C3N)[C@H]2O[Si](C)(C)C(C)(C)C)c1=O
73

The values you see were collected from patent US5527900A.
